# assay_context: in isopropanol, 313.15 K
observed_property: solubility (mole fraction)
API note: the answer field is a bare number with no unit suffix.

For the molecule `CC(=O)Nc1ccc(OC(=O)c2ccccc2OC(C)=O)cc1` , report solubility (mole fraction).
0.000394

----------
# assay_context: in n-butanol, 318.15 K
observed_property: solubility (mole fraction)
API note: the answer field is a bare number with no unit suffix.

For the compound `CC(=O)Nc1ccc(OC(=O)c2ccccc2OC(C)=O)cc1` , report solubility (mole fraction).
0.00104

----------
# assay_context: in 1,4-dioxane, 313.15 K
observed_property: solubility (mole fraction)
API note: the answer field is a bare number with no unit suffix.

For the compound `CC(=O)Nc1ccc(OC(=O)c2ccccc2OC(C)=O)cc1` , report solubility (mole fraction).
0.0035
